Tested on: CDC2L1;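 note: KINOMEscan kinase panel screen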
Construct: gene CDK11B
experimental-conditions: concentration: 1 μM, replicates: in singlicate; n = 1
%Inh overview
result-type: %Inh (%)

compound | readout-value
O=C(Nc1ccc2c(c1)OCO2)NC1CCN(c2ccnc(NCc3ccc(F)cc3)n2)CC1 [GSK1379859] | 0
Cc1ccc(Oc2ccc(Nc3ncnc4cc[nH]c34)cc2C)cn1 | 0
COc1cccc(-n2cnc3c(N)ncnc32)c1 [SKF-97416] | 0
O=C(NCCNc1ccnc(Nc2ccc(F)cc2)n1)Nc1ccc2c(c1)OCO2 [GSK1379882] | 9
CCS(=O)c1ccc(-c2coc3ccc(-c4nnc(C)o4)cc23)cc1 (centres unmarked) | 0
